Values from ChEMBL document CHEMBL4689842

Overview of recorded Population Hoechst High Intensity Objects (%) for various compounds
test system: U2OS; assay: Multiplex assay against U2OS; format: toxicity, cell-based; conditions: human, 24 h, 10 µM, compound concentration 10 uM, replicate 1
Answer format: numeric, % implied, no suffix.

compound="COc1cc(C)c(Sc2cnc(NC(=O)c3ccc(CNC(C)C(C)(C)C)cc3)s2)cc1C(=O)N1CCN(C(C)=O)CC1 (stereo not drawn)" quantitative_readout=1
compound=CC[C@@H]1C(=O)N(C)c2cnc(Nc3ccc(C(=O)NC4CCN(C)CC4)cc3OC)nc2N1C1CCCC1 quantitative_readout=5
compound=CN(c1cc(C(F)(F)F)nc(OCCC(=O)O)n1)c1cccc2c1CCC2 quantitative_readout=3

Lab note: measured Population Hoechst High Intensity Objects (%) of `CC[C@H](Nc1ncnc2[nH]cnc12)c1nc2cccc(F)c2c(=O)n1-c1ccccc1` was 11

Lab note: measured Population Hoechst High Intensity Objects (%) of `CC(C)c1cc(Nc2nc(N3CCC[C@H](N)C3)ncc2C(N)=O)cc(C(C)C)n1` was 9

Lab note: measured Population Hoechst High Intensity Objects (%) of CCCCCNC(=N)N/N=C/c1c[nH]c2ccc(OC)cc12.O=C(O)/C=C\C(=O)O [TEGASEROD MALEATE] was 16

Lab note: measured Population Hoechst High Intensity Objects (%) of `NC(=O)c1ccc2nc(-c3ccc(C4(N)CCC4)cc3)c(-c3ccccc3)n2n1` was 1

Lab note: measured Population Hoechst High Intensity Objects (%) of `Cc1c(Nc2ccc(S(=O)(=O)N3CCN(C)CC3)cc2F)nc2ccc(Nc3cnn(C4CC4)c3)cn2c1=O` was 2
